// reported Ki for each item listed
Molecular target: recombinant human MDM2 protein (residues 1-118, His-tag) (Homo sapiens, UniProt Q00987)
Construct: The recombinant MDM2 human protein (residues 1-118) fused to His-tag at the N terminus; His-tag (N)
Experiment: Fluorescence polarization (FP)-based competitive binding assay with PMDM6-F probe
Conditions: competition with PMDM6-F, FIG. 4B/5
READOUT_TYPE: Ki (nM)

CCC[C@H]1N[C@@H](C(=O)N(C)C)[C@H](c2cccc(Cl)c2)[C@@]12C(=O)Nc1cc(Cl)ccc12 :: 650
CC(C)C[C@H]1N[C@@H](C(=O)N(C)C)[C@H](c2ccc(Cl)cc2)[C@@]12C(=O)Nc1cc(Cl)ccc12 :: 7700
CC(C)CC[C@H]1N[C@@H](C(=O)N(C)C)[C@H](c2cccc(Cl)c2)[C@@]12C(=O)Nc1cc(Cl)ccc12 :: 390
CC(C)C[C@H]1N[C@@H](C(=O)N(C)C)[C@H](c2cccc(Cl)c2)[C@@]12C(=O)Nc1cc(Cl)ccc12 :: 300

====

This listing pairs compounds with measured pIC50.
System: LNCaP prostate cancer cells (p53 wild-type)
Test: WST-8 cell growth inhibition assay, LNCaP
Type: cell-based
Conditions: Homo sapiens, 96 h, 4 days, FIG. 6, read-out: IC50 inhibition of cell growth
pIC50: −log10 of the molar value.
READOUT_TYPE: pIC50

CCC[C@H]1N[C@@H](C(=O)N(C)C)[C@H](c2cccc(Cl)c2)[C@@]12C(=O)Nc1cc(Cl)ccc12 :: 5.57
CC(C)CC[C@H]1N[C@@H](C(=O)N(C)C)[C@H](c2cccc(Cl)c2)[C@@]12C(=O)Nc1cc(Cl)ccc12 :: 5.72
CC(C)C[C@H]1N[C@@H](C(=O)N(C)C)[C@H](c2cccc(Cl)c2)[C@@]12C(=O)Nc1cc(Cl)ccc12 :: 5.68

====

Test system: normal human prostate epithelial cells (PrEC) with wild-type p53
Assay: WST-8 cell growth inhibition assay, PrEC
Assay type: cell-based
Conditions: Homo sapiens, 96 h; PrEC, 4 days, FIG. 8
READOUT_TYPE: IC50 (µM)

CN(C)C(=O)[C@@H]1N[C@H](CC(C)(C)C)[C@]2(C(=O)Nc3cc(Cl)ccc32)[C@H]1c1cccc(Cl)c1 :: 6
